measured_on: human cyclophilin B (Homo sapiens, UniProt P23284)
Sequence (P23284 34-216): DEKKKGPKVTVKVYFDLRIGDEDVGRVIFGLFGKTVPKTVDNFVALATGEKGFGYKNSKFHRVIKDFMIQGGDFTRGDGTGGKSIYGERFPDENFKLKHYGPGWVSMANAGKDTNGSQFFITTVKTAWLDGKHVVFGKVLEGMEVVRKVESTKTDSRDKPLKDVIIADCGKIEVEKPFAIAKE
test_summary: PPIase test: inhibition of human cyclophilin B (Suc-Ala-Ala-Pro-Phe-Nan, chymotrypsin)
Format: biochemical
applied_conditions: Compound [10 μmol]; preincubated 15 minutes at 4° C. with 10 nmol Cyp B
readout_kind: inhibition at 10 µM

Consider the following illustrative entries.
Name the recorded inhibition at 10 µM of the molecule listed here: COCCNC(=O)[C@@H]1Cc2ccccc2N1C(=O)C1CCN(S(=O)(=O)c2ccc(N)cc2)CC1 [Example 8]
40 to 60%

Please give measured inhibition at 10 µM of the following entry: COCCNC(=O)[C@@H]1Cc2ccccc2N1C(=O)C1CCN(S(=O)(=O)c2ccc(NC(C)=O)cc2)CC1 [Example 9]
40 to 60%

The record that follows has no inhibition at 10 µM shown yet.
Return inhibition at 10 µM (reported value) for this molecule: COC(=O)/C=C/c1ccc(NC(=O)[C@@H]2Cc3ccccc3N2S(=O)(=O)c2ccc(NC(C)=O)cc2)cc1 [Example 13]
0 to 20%
